Biological target: TaqHA (Thermus aquaticus, UniProt P19821 1-832, E742H)
Sequence (P19821 whole entry E742H): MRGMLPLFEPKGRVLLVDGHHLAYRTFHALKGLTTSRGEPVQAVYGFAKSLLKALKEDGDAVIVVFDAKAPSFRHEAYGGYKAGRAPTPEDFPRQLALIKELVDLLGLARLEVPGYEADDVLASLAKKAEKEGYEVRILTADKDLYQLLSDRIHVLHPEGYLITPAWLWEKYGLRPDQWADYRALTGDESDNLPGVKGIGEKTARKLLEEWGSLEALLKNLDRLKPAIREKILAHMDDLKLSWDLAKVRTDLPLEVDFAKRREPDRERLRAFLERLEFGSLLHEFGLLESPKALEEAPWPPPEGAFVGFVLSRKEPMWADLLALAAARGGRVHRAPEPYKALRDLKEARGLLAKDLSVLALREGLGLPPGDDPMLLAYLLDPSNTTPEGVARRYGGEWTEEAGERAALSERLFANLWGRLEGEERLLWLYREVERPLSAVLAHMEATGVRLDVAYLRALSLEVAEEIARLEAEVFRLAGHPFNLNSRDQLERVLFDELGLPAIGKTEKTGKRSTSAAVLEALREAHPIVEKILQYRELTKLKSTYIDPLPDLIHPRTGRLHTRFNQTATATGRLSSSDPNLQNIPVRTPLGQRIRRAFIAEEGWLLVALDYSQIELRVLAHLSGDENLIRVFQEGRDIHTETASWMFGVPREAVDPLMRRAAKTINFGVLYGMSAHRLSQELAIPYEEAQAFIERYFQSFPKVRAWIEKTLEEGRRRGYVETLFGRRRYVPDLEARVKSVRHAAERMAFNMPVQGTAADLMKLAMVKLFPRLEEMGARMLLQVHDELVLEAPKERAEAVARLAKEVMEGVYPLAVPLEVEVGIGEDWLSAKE
Test: EMSA; 5 mM Mg2+; apparent Kd; EMSA: 3 nM DNA, 20 mM Tris-HCl pH 8.8, 10 mM NaCl, 5 mM MgCl2, 14 mM 2-mercaptoethanol, 0.1 mg/ml BSA, 5% glycerol, 40 C, 5 min; 1% agarose gel
Details: protein: recombinant; label: 32P on 27mer; primer-template; 27 bp duplex, 5' overhang 22 nt on the 49mer template
pKd: −log10 of the molar value.
Experimental endpoint: pKd

Binder: primed DNA (27mer/49mer) (dsDNA) DNA 1: AGCTATGACCATGATTACGAATTGCTT DNA 2: AGCTACCATGCCTGCACGAATTAAGCAATTCGTAATCATGGTCATAGCT
Experimental endpoint: pKd
Readout number: 8.22
